Assay: soluble fraction after stress (log2 fold change); higher = more stays soluble; pooled small domains, quantitative proteomics
Conditions: stress: 50 degC
property_label: soluble fraction (log2)

Specify soluble fraction (log2) for HMTHSEYVGRHGIAATSLRPAGAATIDGSRVDVVTSGEYIEKGTPIEVMTVNGSTVRVKAVPQIP and stop. 0.0508

Specify soluble fraction (log2) for HMKKIDVEVVRSQLIAWMADNGKSQAEVSKSMGISASALSMFIKGTYTGDNEQIGRKAAALMDLVHRQSA and stop. 0.0121

Specify soluble fraction (log2) for HMDNLSESQIKAYSSILSRTHEISDLAENKDYLAFSLWIANILRDPQSVREETAKRVFSALHTNTDFK and stop. -0.945

Specify soluble fraction (log2) for HMLLTPLEETRLVIEEIVIPQKLTIDLLPRSSAIRKLQHELITHYQLRGTSVGNEPNRRLRIYP and stop. -0.244

Specify soluble fraction (log2) for HMENKLIELTLSLDKSERLDKILTQELSHTRSVIQQWLKSGFVSVNGEIVKANYKAKDGDHVTIQIE and stop. -0.198

Specify soluble fraction (log2) for HMAPKVTLNETETAIFEKMQQEKQLLLSELRTHFDISNKLWDTSIKTLTKNQLLTVSKEADLLWIKL and stop. -0.658

Specify soluble fraction (log2) for HMKDKSEKTKKLIFEAAFKIIREEGFSELSANKIAQVASVSKGVIFHHFSQMDDLYLFMLDTL and stop. 0.255

Specify soluble fraction (log2) for HMGTHDAGTRFFDNLDSLLQNRDATRADVLAVYLLAVSLGFRGKHRSVSSAPQIAHYRNQAYVTLFQ and stop. 0.546

Provenance of the data: the domain aggregation screens of Martell et al. (2025)
